# Assay system: T1, MAdCAM-IgG1 Fc fusion protein (human)
# T1 construct: Made in CHO-DHFR cells; also called MAdCAM-IgFc
# T1 sequence (chain, as listed by the source limits assumed): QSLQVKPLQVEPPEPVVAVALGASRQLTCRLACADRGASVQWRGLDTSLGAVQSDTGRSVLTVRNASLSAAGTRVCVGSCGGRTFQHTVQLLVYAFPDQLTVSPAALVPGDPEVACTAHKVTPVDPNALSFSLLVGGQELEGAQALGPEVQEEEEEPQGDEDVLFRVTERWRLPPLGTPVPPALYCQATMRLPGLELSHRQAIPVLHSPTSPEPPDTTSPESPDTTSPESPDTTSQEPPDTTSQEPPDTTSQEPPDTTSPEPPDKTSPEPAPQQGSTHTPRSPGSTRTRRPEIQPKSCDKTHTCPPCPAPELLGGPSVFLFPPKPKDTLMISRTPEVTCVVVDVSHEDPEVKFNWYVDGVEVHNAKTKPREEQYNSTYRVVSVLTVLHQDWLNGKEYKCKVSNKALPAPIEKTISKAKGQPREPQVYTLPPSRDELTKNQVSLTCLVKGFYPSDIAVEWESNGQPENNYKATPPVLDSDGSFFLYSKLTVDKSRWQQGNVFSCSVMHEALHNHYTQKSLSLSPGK
# Experiment notes: SPR BIAcore protocol 1: mAb captured, MAdCAM-IgG1 Fc injected
Measured endpoint: kon (M⁻¹ s⁻¹)

Binder: anti-MAdCAM monoclonal antibody 6.22.2 (antibody, human IgG4, kappa, V domains shown, human IgG4 kappa from hybridoma 6.22.2) VH: QVQLVESGGGVVQPGRSLRLSCAASGHTFSSDGMHWVRQAPGKGLEWVAIIWYDGSNKYYADSVKGRFTISRDNSKNTLYLQMNSLRAEDTAVYYCARDPGYYYGMDVWGQGTTVTVSS VL: EIVLTQSPDFQSVTPKEKVTITCRASQRIGSSLHWYQQKPDQSPKLLIKYASQSFSGVPSRFSGSGSGTNFTLTINGLEAEDAATYYCHQSGRLPLTFGGGTKVEIKR
Observed result: 1.5e+06
